experiment summary: NOVARTIS: Cytotoxicity against human hepatocellular carcinoma cell line (Huh7)
Format: toxicity, cell-based, Huh-7
experimental conditions: Huh7 cells (hepatocellular carcinoma cell line)
measured property: CC50

* CC1CC(C)CN(c2ccc([N+](=O)[O-])cc2-c2nnn[nH]2)C1 (stereo not given) | > 10 µM
* COC(=O)C1=CNC=C(C(=O)OC)C1c1cc(Br)ccc1OC | > 57.8 µM
* CCOc1ccc2nc(C)cc(Nc3ccc(OCc4ccccc4Cl)cc3)c2c1 | 5.84 µM
* CC(C)CNc1nc(NCCCN2CCCCC2C)ncc1C(=O)NCc1ccccc1 (stereo not given) | > 10 µM
* CCOC(=O)C1=C(c2ccccc2)N=c2sc(=Cc3cc(C)n(-c4ccc(F)cc4)c3C)c(=O)n2C1c1cccc(OC)c1OC (stereo not given) | > 100 µM

---

experiment summary: NOVARTIS: Cytotoxicity against human hepatocellular carcinoma cell line (Huh7)
Format: toxicity, cell-based, Huh-7
experimental conditions: Huh7 cells (hepatocellular carcinoma cell line)
// reported CC50 for each item listed
measured property: CC50 (µM)

* CCOc1ccc(NC(=O)c2ccc(F)c(S(=O)(=O)NC3CCCC(C)C3C)c2)cc1 (stereo not given) | 32.2
* CCCCCN(CCCCC)C(O)c1cc2c(c3ccccc13)CCCC2 (stereo not given) | 35.5
* CCCCN(CCCC)[P+](N(CCCC)CCCC)(N(CCCC)CCCC)N(CCCC)CCCC | 0.784

---

experiment summary: NOVARTIS: Cytotoxicity against human hepatocellular carcinoma cell line (Huh7)
Assay type: toxicity, cell-based, Huh-7
experimental conditions: Huh7 cells (hepatocellular carcinoma cell line)
// reported CC50 for each item listed
measured property: CC50 (µM)

• CCN1/C(=C/c2ccc3ccccc3[n+]2CC)Sc2sc3ccccc3c21 = 4.77
• C=CC1CN2CCC1CC2[C@@H](OC(=O)c1ccc(OC)cc1)c1ccnc2ccccc12 (stereo partly specified) = 87.1
• CCC(CO)NCC(O)Cn1c2ccc(Br)cc2c2cc(Br)ccc21 (stereo unspecified) = 11.2
• c1ccc(CCNC2CCN(Cc3ccccc3)CC2)cc1 = 43.5
• C[C@H]1C[C@H](C)C(=O)[C@@H]([C@@H](O)CC2CC(=O)NC(=O)C2)C1 = 0.304
• COc1ccc2nc(C)cc(Nc3ccc(Oc4ccc(Cl)c5ccccc45)c(Cl)c3)c2c1 = 19.8

---

experiment summary: NOVARTIS: Cytotoxicity against human hepatocellular carcinoma cell line (Huh7)
Format: toxicity, cell-based, Huh-7
experimental conditions: Huh7 cells (hepatocellular carcinoma cell line)
measured property: CC50

• O=S(=O)(Oc1ccc2ccccc2c1Cc1c(OS(=O)(=O)c2ccccc2)ccc2ccccc12)c1ccccc1 = > 100 µM
• CCCc1cc(O)c2c3c(c(=O)oc2c1)CN(C)CC3 = > 100 µM
• c1ccc(-c2cc(N3CCOCC3)nc(-c3ccccn3)n2)nc1 = > 10 µM
• N=c1c2c(n(Cc3ccc(Cl)cc3)c3c1CCC3)CCCC2 = > 10 µM
• Sc1nnc(-c2ccncc2)n1CCc1ccccc1 = > 100 µM
• Cc1cc(Cl)ccc1OC(C)C(=O)N1CCc2ccccc21 (stereo unspecified) = > 100 µM
• c1ccc2cc3c(N4CCN(CCCN5CCN(c6ccnc7cc8ccccc8cc67)CC5)CC4)ccnc3cc2c1 = > 10 µM
• CC(=O)N1c2ccc([N+](=O)[O-])cc2C(C)(c2ccccc2)CC1(C)C (stereo unspecified) = > 100 µM
• COc1cc(OC)c(NC(=O)C2c3ccccc3C(=O)N(C)C2c2ccc(OC)c(OC)c2)cc1Cl (stereo unspecified) = > 100 µM
• COc1ccc(-n2c(COc3cccc4ccccc34)nnc2SC)cc1 = > 100 µM
• COc1ccc(C=Cc2ccc3ccccc3[n+]2C)cc1 = > 100 µM
